target: A-CAT D663A; experiment: mant-nucleotide binding to A-CAT D663A; settings: A-CAT D663A; 22 °C, 2 mM MgCl2, 1 mM dithiothreitol, 20 mM TES, pH 7.0; mean and standard deviation of at least 3 separate experiments
Observed property: Kd (µM)
Numbers only here, please. The scale is µM.

Q: Fill blank: measured Kd of the compound CNc1ccccc1C(=O)O[C@H]1[C@@H](O)[C@H](n2cnc3c(N)ncnc32)O[C@@H]1COP(=O)(O)OP(=O)(O)O is ____.
Ans: 8

Q: Fill blank: measured Kd of the compound CNc1ccccc1C(=O)O[C@H]1[C@@H](O)[C@H](n2cnc3c(N)ncnc32)O[C@@H]1CO[P@@](=O)(O)O[P@](=O)(O)OP(=O)(O)O is ____.
Ans: 3.2
